Provide the reported IC50 of each item.
# Assayed Target: Human Nav1.8 (Homo sapiens)
# Construct: expressed in transfected cells; host or cells: HEK293
# Sequence (Q9Y5Y9 whole entry): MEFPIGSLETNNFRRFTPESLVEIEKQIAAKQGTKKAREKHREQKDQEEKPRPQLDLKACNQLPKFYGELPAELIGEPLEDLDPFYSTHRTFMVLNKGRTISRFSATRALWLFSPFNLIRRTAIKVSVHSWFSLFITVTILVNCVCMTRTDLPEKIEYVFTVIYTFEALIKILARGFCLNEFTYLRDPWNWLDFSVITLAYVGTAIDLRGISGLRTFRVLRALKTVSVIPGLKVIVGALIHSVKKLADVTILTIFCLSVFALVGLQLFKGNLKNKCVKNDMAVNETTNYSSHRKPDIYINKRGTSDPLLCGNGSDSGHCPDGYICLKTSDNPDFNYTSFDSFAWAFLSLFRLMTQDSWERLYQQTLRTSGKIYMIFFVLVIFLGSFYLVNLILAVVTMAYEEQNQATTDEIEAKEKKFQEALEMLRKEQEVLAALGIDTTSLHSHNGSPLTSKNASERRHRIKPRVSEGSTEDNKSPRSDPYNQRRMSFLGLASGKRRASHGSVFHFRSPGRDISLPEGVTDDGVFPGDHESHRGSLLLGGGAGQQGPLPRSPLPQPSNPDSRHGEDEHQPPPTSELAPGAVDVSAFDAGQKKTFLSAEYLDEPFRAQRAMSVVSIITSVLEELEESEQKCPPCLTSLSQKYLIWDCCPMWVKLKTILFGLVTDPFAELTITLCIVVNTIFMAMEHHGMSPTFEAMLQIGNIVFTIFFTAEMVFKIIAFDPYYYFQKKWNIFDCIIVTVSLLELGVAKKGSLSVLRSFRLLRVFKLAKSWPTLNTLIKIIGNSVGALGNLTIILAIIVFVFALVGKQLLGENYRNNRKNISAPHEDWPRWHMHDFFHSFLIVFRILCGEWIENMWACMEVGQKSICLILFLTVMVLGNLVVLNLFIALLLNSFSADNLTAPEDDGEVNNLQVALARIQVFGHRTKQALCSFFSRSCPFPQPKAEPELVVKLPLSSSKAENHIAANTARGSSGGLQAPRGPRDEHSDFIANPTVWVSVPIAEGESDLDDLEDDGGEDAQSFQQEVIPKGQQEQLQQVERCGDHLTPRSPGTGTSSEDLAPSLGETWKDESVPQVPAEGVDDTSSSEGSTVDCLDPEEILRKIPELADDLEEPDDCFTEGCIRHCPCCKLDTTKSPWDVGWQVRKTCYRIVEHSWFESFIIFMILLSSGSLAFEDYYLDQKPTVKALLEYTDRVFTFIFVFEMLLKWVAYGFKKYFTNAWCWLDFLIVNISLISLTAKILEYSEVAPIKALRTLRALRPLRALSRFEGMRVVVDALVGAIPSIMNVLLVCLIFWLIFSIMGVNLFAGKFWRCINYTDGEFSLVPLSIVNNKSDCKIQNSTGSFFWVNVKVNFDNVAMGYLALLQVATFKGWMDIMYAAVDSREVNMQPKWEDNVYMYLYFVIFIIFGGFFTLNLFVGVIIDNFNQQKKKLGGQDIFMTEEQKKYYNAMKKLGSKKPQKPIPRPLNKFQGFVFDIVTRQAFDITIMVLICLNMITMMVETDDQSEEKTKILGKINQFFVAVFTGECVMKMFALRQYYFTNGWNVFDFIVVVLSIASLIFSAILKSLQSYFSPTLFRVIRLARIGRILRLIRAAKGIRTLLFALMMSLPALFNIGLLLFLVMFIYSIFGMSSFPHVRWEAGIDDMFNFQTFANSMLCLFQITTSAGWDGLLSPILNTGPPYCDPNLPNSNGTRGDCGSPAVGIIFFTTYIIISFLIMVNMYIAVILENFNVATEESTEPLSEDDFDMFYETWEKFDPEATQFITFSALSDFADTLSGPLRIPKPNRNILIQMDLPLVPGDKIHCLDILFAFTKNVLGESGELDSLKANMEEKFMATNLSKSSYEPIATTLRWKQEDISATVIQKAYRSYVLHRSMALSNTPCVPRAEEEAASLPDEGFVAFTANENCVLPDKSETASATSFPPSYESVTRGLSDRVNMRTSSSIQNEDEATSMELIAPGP
# Experiment Notes: VIPR Assay for Nav1.8 Compounds (FRET membrane potential, deltamethrin opener)
# Format: cell-based
# Experimental Setup: VIPR FRET membrane potential assay, deltamethrin opener; average of replicates; read-out: Nav1.8 IC50
Form entry: value (nM) — number only.

Q: Which measured IC50 value corresponds to COCc1oncc1C(=O)Nc1ccc(-c2cc(F)ccc2Cl)c(N)n1 ?
Ans: 570

Q: Which measured IC50 value corresponds to CCn1nccc1C(=O)Nc1ccc(-c2cc(OC)ccc2Cl)c(N)n1 ?
Ans: 950

Q: Which measured IC50 value corresponds to COCCOc1ccc(F)cc1-c1ccc(NC(=O)c2ccnn2C)nc1N ?
Ans: 12000

Q: Which measured IC50 value corresponds to CCOc1ccccc1-c1ccc(NC(=O)c2ccnn2C)nc1N ?
Ans: 2300

Q: Which measured IC50 value corresponds to COc1ccc(OC(F)(F)F)c(-c2ccc(NC(=O)c3conc3C)nc2N)c1 ?
Ans: 560

Q: Which measured IC50 value corresponds to COc1cc(Cl)c(Cl)c(-c2ccc(NC(=O)c3cnnn3C)nc2N)c1 ?
Ans: 1100

Q: Which measured IC50 value corresponds to Cn1nccc1C(=O)Nc1ccc(-c2cc(F)ccc2Cl)c(N)n1 ?
Ans: 1100

Q: Which measured IC50 value corresponds to CCn1nccc1C(=O)Nc1ccc(-c2cc(Cl)cc(OC)c2Cl)c(N)n1 ?
Ans: 5100

Q: Which measured IC50 value corresponds to Cn1nccc1C(=O)Nc1ccc(-c2ccccc2CC(F)(F)F)c(N)n1 ?
Ans: 2100

// provenance: patent US8134007B2
